Listing: inhibition of growth at 100 ppm of selected compounds
system: Botry tris cinerea; assay: In vitro percent disease control (radii of spore growth on agar); type: cell-based; details: 100 ppm; read-out: % controlled, Bo ci.

# compound, inhibition of growth at 100 ppm
records = [
    ("COc1ccc([Si](C)(Cn2cncn2)C[Si](C)(C)c2ccc(Cl)cc2)cc1 (stereo not shown)", "80%"),
    ("CCOc1ccc([Si](C)(C)C[Si](Cn2cncn2)(c2ccc(F)cc2)c2ccc(Cl)cc2)cc1 (stereo not shown)", "90%"),
    ("C=CC[Si](C)(Cn1cncn1)C[Si](CC=C)(c1ccc(F)cc1)c1ccc(F)cc1 (stereo not shown)", "100%"),
    ("C[Si](C)(C[Si](C)(Cn1cncn1)c1ccc(Cl)cc1)c1ccc(F)cc1 (stereo not shown)", "18%"),
    ("C=CC[Si](C)(Cn1cncn1)C[Si](CC=C)(c1ccc(OCC)cc1)c1ccc(OCC)cc1 (stereo not shown)", "100%"),
    ("COc1ccc([Si](Cn2cncn2)(C[Si](C)(C)c2ccc(Cl)cc2)c2ccc(Cl)cc2)cc1 (stereo not shown)", "43%"),
    ("C=CC[Si](C)(Cn1cncn1)C[Si](CC=C)(c1ccccc1)c1ccccc1 (stereo not shown)", "100%"),
    ("C[Si](C)(C)C[Si](Cn1cncn1)(c1ccc(Cl)cc1)c1ccc(Cl)cc1", "85%"),
    ("C=CC[Si](C[Si](C)(Cn1cncn1)c1ccc(F)cc1)(c1ccc(F)cc1)c1ccc(F)cc1 (stereo not shown)", "66%"),
    ("C[Si](C)(C[Si](Cn1cncn1)(c1ccc(Cl)cc1)c1ccc(Cl)cc1)c1ccc(F)cc1", "53%"),
    ("CCOc1ccc([Si](C)(Cn2cncn2)C[Si](C)(C)c2ccc(F)cc2)cc1 (stereo not shown)", "0%"),
    ("C=CC[Si](C)(Cn1cncn1)C[Si](CC=C)(CC=C)CC=C (stereo not shown)", "80%"),
    ("C=CC[Si](C)(Cn1cncn1)C[Si](CC=C)(c1ccccc1)c1ccc(-c2ccccc2)cc1 (stereo not shown)", "100%"),
    ("C=CC[Si](C)(Cn1cncn1)C[Si](CC=C)(c1ccccc1)c1ccc(F)cc1 (stereo not shown)", "70%"),
    ("C[Si](C)(C[Si](Cn1cncn1)(c1ccc(F)cc1)c1ccc(F)cc1)c1ccc(-c2ccccc2)cc1", "23%"),
    ("C[Si](C)(C)C[Si](C)(Cn1cncn1)c1ccc(F)cc1 (stereo not shown)", "83%"),
    ("C=CC[Si](Cn1cncn1)(C[Si](CC=C)(c1ccccc1)c1ccc(-c2ccccc2)cc1)c1ccc(F)cc1 (stereo not shown)", "90%"),
    ("C[Si](C)(C[Si](C)(Cn1cncn1)c1ccc(F)cc1)c1ccc(F)cc1 (stereo not shown)", "10%"),
    ("C[Si](C)(C[Si](C)(Cn1cncn1)c1ccc(Cl)cc1)c1ccc(Cl)cc1 (stereo not shown)", "41%"),
]

###

tested on: Fusarium moniliforme; experiment: In vitro percent disease control (radii of spore growth on agar); format: cell-based; conditions: 50 ppm
value_type: % controlled, Fu. mo. (%)

# compound, reported_value
records = [
    ("C[Si](C)(C[Si](C)(Cn1cncn1)c1ccc(F)cc1)c1ccc(-c2ccccc2)cc1 (stereo not drawn)", 46),
    ("COc1ccc([Si](C)(Cn2cncn2)C[Si](C)(C)c2ccc(Cl)cc2)cc1 (stereo not drawn)", 28),
    ("COc1ccc([Si](Cn2cncn2)(C[Si](C)(C)c2ccc(Cl)cc2)c2ccc(Cl)cc2)cc1 (stereo not drawn)", 42),
    ("C=CC[Si](C)(Cn1cncn1)C[Si](CC=C)(c1ccccc1)c1ccc(-c2ccccc2)cc1 (stereo not drawn)", 100),
    ("C[Si](C)(C[Si](Cn1cncn1)(c1ccc(Cl)cc1)c1ccc(Cl)cc1)c1ccc(F)cc1", 41),
    ("C=CC[Si](C[Si](CC)(Cn1cncn1)c1ccc(OCC)cc1)(c1ccc(F)cc1)c1ccc(F)cc1 (stereo not drawn)", 90),
    ("CCOc1ccc([Si](C)(Cn2cncn2)C[Si](C)(C)c2ccc(F)cc2)cc1 (stereo not drawn)", 41),
    ("C=CC[Si](C)(Cn1cncn1)C[Si](CC=C)(c1ccccc1)c1ccccc1 (stereo not drawn)", 60),
    ("C=CC[Si](C)(Cn1cncn1)C[Si](CC=C)(CC=C)CC=C (stereo not drawn)", 46),
]

###

system: Physalospora baccae; assay: In vitro percent disease control (radii of spore growth on agar); format: cell-based; conditions: 50 ppm; read-out: % controlled, Phy ba.
value_type: inhibition of growth at 50 ppm

# compound, reported_value
records = [
    ("C=CC[Si](CC=C)(Cn1cncn1)C[Si](CC=C)(c1ccc(F)cc1)c1ccc(-c2ccccc2)cc1 (stereo not shown)", "100%"),
    ("C=CC[Si](C[Si](C)(Cn1cncn1)c1ccc(OCC)cc1)(c1ccccc1)c1ccc(-c2ccccc2)cc1 (stereo not shown)", "100%"),
    ("C[Si](C)(C[Si](C)(Cn1cncn1)c1ccc(Cl)cc1)c1ccc(Cl)cc1 (stereo not shown)", "34%"),
    ("C[Si](C)(C[Si](Cn1cncn1)(c1ccc(F)cc1)c1ccc(F)cc1)c1ccc(Cl)cc1", "80%"),
    ("C=CC[Si](C)(Cn1cncn1)C[Si](CC=C)(c1ccccc1)c1ccc(-c2ccccc2)cc1 (stereo not shown)", "84%"),
    ("C=CC[Si](C[Si](C)(Cn1cncn1)c1ccc(F)cc1)(c1ccccc1)c1ccc(-c2ccccc2)cc1 (stereo not shown)", "100%"),
    ("C=CC[Si](C)(Cn1cncn1)C[Si](CC=C)(c1ccc(F)cc1)c1ccc(F)cc1 (stereo not shown)", "60%"),
    ("C=CC[Si](Cn1cncn1)(C[Si](CC=C)(c1ccc(F)cc1)c1ccc(-c2ccccc2)cc1)c1ccc(F)cc1 (stereo not shown)", "60%"),
    ("COc1ccc([Si](Cn2cncn2)(C[Si](C)(C)c2ccc(Cl)cc2)c2ccc(Cl)cc2)cc1 (stereo not shown)", "76%"),
    ("C[Si](C)(C[Si](C)(Cn1cncn1)c1ccc(F)cc1)c1ccc(F)cc1 (stereo not shown)", "22%"),
    ("CCOc1ccc([Si](C)(C)C[Si](Cn2cncn2)(c2ccc(F)cc2)c2ccc(Cl)cc2)cc1 (stereo not shown)", "69%"),
    ("C[Si](C)(C[Si](C)(Cn1cncn1)c1ccc(F)cc1)c1ccc(-c2ccccc2)cc1 (stereo not shown)", "69%"),
    ("C[Si](C)(C[Si](Cn1cncn1)(c1ccc(F)cc1)c1ccc(F)cc1)c1ccc(-c2ccccc2)cc1", "28%"),
    ("C[Si](C)(C)C[Si](Cn1cncn1)(c1ccc(F)cc1)c1ccc(F)cc1", "20%"),
    ("C=CC[Si](C[Si](C)(Cn1cncn1)c1ccc(F)cc1)(c1ccc(F)cc1)c1ccc(F)cc1 (stereo not shown)", "53%"),
    ("COc1ccc([Si](C)(Cn2cncn2)C[Si](C)(C)c2ccc(Cl)cc2)cc1 (stereo not shown)", "50%"),
    ("CCOc1ccc([Si](Cn2cncn2)(C[Si](C)(C)c2ccc(F)cc2)c2ccc(OCC)cc2)cc1", "53%"),
    ("C=CC[Si](CC=C)(Cn1cncn1)C[Si](CC=C)(CC=C)c1ccccc1", "60%"),
    ("CCOc1ccc([Si](C)(C)C[Si](C)(Cn2cncn2)c2ccc(F)cc2)cc1 (stereo not shown)", "53%"),
    ("C[Si](C)(C[Si](C)(Cn1cncn1)c1ccc(Cl)cc1)c1ccc(F)cc1 (stereo not shown)", "20%"),
    ("C=CC[Si](C)(Cn1cncn1)C[Si](CC=C)(CC=C)CC=C (stereo not shown)", "80%"),
    ("CCOc1ccc([Si](C)(Cn2cncn2)C[Si](C)(C)c2ccc(F)cc2)cc1 (stereo not shown)", "28%"),
]

###

Listing: inhibition of growth at 50 ppm of selected molecules
tested on: Rhizoctonia solani; test: In vitro percent disease control (radii of spore growth on agar); format: cell-based; settings: Rhizoctonia solani, 50 ppm; read-out: % controlled, Rhy. so.

# molecule, target_or_system, inhibition of growth at 50 ppm
rows = [
    ("C=CC[Si](C)(Cn1cncn1)C[Si](CC=C)(c1ccccc1)c1ccccc1 (stereo not drawn)", "Rhizoctonia solani", "80%"),
    ("C=CC[Si](C)(Cn1cncn1)C[Si](CC=C)(CC=C)c1ccc(F)cc1 (stereo not drawn)", "Rhizoctonia solani", "96%"),
    ("C=CC[Si](CC=C)(Cn1cncn1)C[Si](CC=C)(c1ccc(F)cc1)c1ccc(-c2ccccc2)cc1 (stereo not drawn)", "Rhizoctonia solani", "100%"),
    ("C[Si](C)(C[Si](Cn1cncn1)(c1ccc(Cl)cc1)c1ccc(Cl)cc1)c1ccc(F)cc1", "Rhizoctonia solani", "43%"),
    ("COc1ccc([Si](Cn2cncn2)(C[Si](C)(C)c2ccc(Cl)cc2)c2ccc(Cl)cc2)cc1 (stereo not drawn)", "Rhizoctonia solani", "90%"),
    ("COc1ccc([Si](C)(Cn2cncn2)C[Si](C)(C)c2ccc(Cl)cc2)cc1 (stereo not drawn)", "Rhizoctonia solani", "100%"),
    ("C=CC[Si](C)(Cn1cncn1)C[Si](CC=C)(c1ccc(OCC)cc1)c1ccc(OCC)cc1 (stereo not drawn)", "Rhizoctonia solani", "100%"),
    ("CCOc1ccc([Si](C)(Cn2cncn2)C[Si](C)(C)c2ccc(F)cc2)cc1 (stereo not drawn)", "Rhizoctonia solani", "74%"),
    ("C=CC[Si](C[Si](C)(Cn1cncn1)c1ccc(OCC)cc1)(c1ccccc1)c1ccc(-c2ccccc2)cc1 (stereo not drawn)", "Rhizoctonia solani", "100%"),
    ("C[Si](C)(C)C[Si](Cn1cncn1)(c1ccc(F)cc1)c1ccc(F)cc1", "Rhizoctonia solani", "60%"),
    ("C=CC[Si](C)(Cn1cncn1)C[Si](CC=C)(c1ccccc1)c1ccc(F)cc1 (stereo not drawn)", "Rhizoctonia solani", "96%"),
    ("C[Si](C)(C)C[Si](Cn1cncn1)(c1ccc(Cl)cc1)c1ccc(Cl)cc1", "Rhizoctonia solani", "56%"),
    ("C=CC[Si](C)(Cn1cncn1)C[Si](CC=C)(c1ccccc1)c1ccc(-c2ccccc2)cc1 (stereo not drawn)", "Rhizoctonia solani", "80%"),
    ("C[Si](C)(C[Si](C)(Cn1cncn1)c1ccc(F)cc1)c1ccc(-c2ccccc2)cc1 (stereo not drawn)", "Rhizoctonia solani", "96%"),
    ("C[Si](C)(Cc1ccc(F)cc1)C[Si](C)(Cn1cncn1)c1ccc(F)cc1 (stereo not drawn)", "Rhizoctonia solani", "36%"),
    ("C=CC[Si](C)(Cn1cncn1)C[Si](CC=C)(c1ccc(F)cc1)c1ccc(F)cc1 (stereo not drawn)", "Rhizoctonia solani", "75%"),
    ("CCOc1ccc([Si](C)(C)C[Si](Cn2cncn2)(c2ccc(F)cc2)c2ccc(Cl)cc2)cc1 (stereo not drawn)", "Rhizoctonia solani", "96%"),
    ("C[Si](C)(C[Si](Cn1cncn1)(c1ccc(F)cc1)c1ccc(F)cc1)c1ccc(-c2ccccc2)cc1", "Rhizoctonia solani", "65%"),
    ("C[Si](C)(C[Si](C)(Cn1cncn1)c1ccc(Cl)cc1)c1ccc(F)cc1 (stereo not drawn)", "Rhizoctonia solani", "31%"),
    ("C[Si](C)(C[Si](Cn1cncn1)(c1ccc(F)cc1)c1ccc(F)cc1)c1ccc(Cl)cc1", "Rhizoctonia solani", "100%"),
    ("C[Si](C)(C)C[Si](C)(Cn1cncn1)c1ccc(F)cc1 (stereo not drawn)", "Rhizoctonia solani", "90%"),
]
